# Tested on: pigweed (Amaranthus retroflexus)
# assay.explanation: Test A postemergence, visual plant response rating
# Assay type: in vivo
# run.conditions: Postemergence, 125 g ai/ha; 0 to 100 scale (0 no effect, 100 complete control)
readout.label: Pigweed plant response rating
Give only the figure.

CON=C(c1cccc(C2CC2)c1)c1c(O)c(C)nn(C)c1=O :: 70
CON=C(c1c(O)c(C)nn(C)c1=O)c1cccc2ccoc12 :: 50
CON=C(c1ccccc1C1CC1)c1c(O)c(C)nn(C)c1=O [Compound 104] :: 70
C=CCn1nc(C)c(O)c(C(=NOC)c2cccc(Cl)c2)c1=O (mixture of isomers) :: 0
C#CCO/N=C(\c1c(O)c(C)nn(C)c1=O)c1ccc(F)c2ccccc12 :: 90
CCO/N=C(/c1c(O)c(C)nn(C)c1=O)c1cc(Br)cc2ccccc12 :: 100

Field: Pigweed plant response rating (pigweed (Amaranthus retroflexus)). Entry: Cc1cccc(/C(=N\O)c2c(O)c(C)nn(C)c2=O)c1
0

Which Pigweed plant response rating is reported with pigweed (Amaranthus retroflexus) for this entry: CON=C(c1cccc(C)c1F)c1c(O)c(C)nn(C)c1=O ?
80

Record CO/N=C(/c1cccc(C)c1C)c1c(O)c(C)nn(C)c1=O : what is its Pigweed plant response rating with pigweed (Amaranthus retroflexus)?
20
